biological target: human plasma angiotensin converting enzyme (Homo sapiens); construct: partially-purified human plasma angiotensin converting enzyme; assay: In vitro assay of inhibition of angiotensin converting enzyme; details: [3H]benzoyl-Gly-His-Leu 80 nM, 37°C, 15 minutes; order of magnitude only; read-out: I50
Sequence (P12821 30-1232 limits assumed): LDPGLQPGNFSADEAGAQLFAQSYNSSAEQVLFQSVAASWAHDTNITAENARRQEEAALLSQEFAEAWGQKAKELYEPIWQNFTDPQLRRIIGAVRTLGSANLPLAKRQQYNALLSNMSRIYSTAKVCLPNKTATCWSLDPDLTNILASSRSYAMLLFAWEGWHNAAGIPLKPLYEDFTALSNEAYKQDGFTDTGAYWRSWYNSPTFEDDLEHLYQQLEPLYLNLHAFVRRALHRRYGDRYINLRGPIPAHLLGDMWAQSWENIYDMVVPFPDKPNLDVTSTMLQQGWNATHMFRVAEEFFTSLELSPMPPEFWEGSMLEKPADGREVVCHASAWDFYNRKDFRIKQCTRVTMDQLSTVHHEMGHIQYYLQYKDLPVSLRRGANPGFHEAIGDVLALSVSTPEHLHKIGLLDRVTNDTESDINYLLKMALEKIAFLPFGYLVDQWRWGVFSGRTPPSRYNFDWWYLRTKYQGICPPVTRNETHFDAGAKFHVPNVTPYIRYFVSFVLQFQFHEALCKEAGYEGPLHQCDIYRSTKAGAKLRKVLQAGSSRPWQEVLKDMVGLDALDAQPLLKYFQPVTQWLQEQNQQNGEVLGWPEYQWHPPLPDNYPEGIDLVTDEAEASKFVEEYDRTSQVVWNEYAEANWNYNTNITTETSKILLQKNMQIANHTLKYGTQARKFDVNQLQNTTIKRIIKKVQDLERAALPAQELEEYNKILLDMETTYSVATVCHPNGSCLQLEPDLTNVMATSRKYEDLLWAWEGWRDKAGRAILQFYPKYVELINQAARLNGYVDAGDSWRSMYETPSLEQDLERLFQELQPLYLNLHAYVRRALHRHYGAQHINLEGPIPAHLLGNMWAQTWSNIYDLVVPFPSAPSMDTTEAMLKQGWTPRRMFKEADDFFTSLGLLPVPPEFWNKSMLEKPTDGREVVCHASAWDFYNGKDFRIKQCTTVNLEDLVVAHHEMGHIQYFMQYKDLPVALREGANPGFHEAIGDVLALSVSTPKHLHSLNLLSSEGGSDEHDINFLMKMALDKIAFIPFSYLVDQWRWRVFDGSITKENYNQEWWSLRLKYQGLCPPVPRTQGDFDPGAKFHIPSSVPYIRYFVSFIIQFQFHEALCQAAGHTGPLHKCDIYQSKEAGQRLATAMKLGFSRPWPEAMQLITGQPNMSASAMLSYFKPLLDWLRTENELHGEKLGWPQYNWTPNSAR
Catalogue of IC50 readings, one per entry.

Previously resolved entries follow.
molecule | IC50
CC(N[C@@H](CCC(=O)Nc1ccc(I)cc1)C(=O)O)C(=O)N1CCC[C@H]1C(=O)O (stereo partly drawn) | ~1 nM
CC(N[C@@H](CC(=O)N1CCCC1)C(=O)O)C(=O)N1CCC[C@H]1C(=O)O (stereo partly drawn) | ~100 nM

We next turn to a different molecule, shown below.
In: Give the reported IC50 for CC(N[C@@H](CCC(=O)Nc1ccccc1)C(=O)O)C(=O)N1CCC[C@H]1C(=O)O (stereo partly drawn) (system: human plasma angiotensin converting enzyme (Homo sapiens)).
Out: ~1 nM

// provenance: patent EP0073143B1
